test system: Escherichia coli TOP10; test: shrunken log2 fold change of peptide-encoding DNA abundance (4.5 h post-induction vs induction); higher = less antimicrobial activity (less host growth inhibition); conditions: time post-induction: 4.5 h; library: site-saturation at positions 5, 18, 19, 20

| polymer.sequence | system.under.test | shrunken log2 fold change |
| --- | --- | --- |
| RRIRQRPPRLPRPRPRPEYWPRP | Escherichia coli TOP10 | 0.0626 |
| RRIRCRPPRLPRPRPRPTSIPRP | Escherichia coli TOP10 | -0.343 |
| RRIRDRPPRLPRPRPRPMFMPRP | Escherichia coli TOP10 | 0.169 |
| RRIRHRPPRLPRPRPRPYENPRP | Escherichia coli TOP10 | -0.0765 |
| RRIRRRPPRLPRPRPRPRYIPRP | Escherichia coli TOP10 | -0.12 |
| RRIRMRPPRLPRPRPRPFMVPRP | Escherichia coli TOP10 | -0.161 |
| RRIRCRPPRLPRPRPRPYFAPRP | Escherichia coli TOP10 | -0.563 |
| RRIRPRPPRLPRPRPRPQNVPRP | Escherichia coli TOP10 | -0.212 |
| RRIRLRPPRLPRPRPRPRQGPRP | Escherichia coli TOP10 | 0.252 |
| RRIRFRPPRLPRPRPRPVADPRP | Escherichia coli TOP10 | -0.00475 |
| RRIRKRPPRLPRPRPRPWGAPRP | Escherichia coli TOP10 | 0.449 |
| RRIRHRPPRLPRPRPRPPQCPRP | Escherichia coli TOP10 | 0.178 |
| RRIRGRPPRLPRPRPRPCEKPRP | Escherichia coli TOP10 | 0.797 |
| RRIRIRPPRLPRPRPRPDHTPRP | Escherichia coli TOP10 | -0.25 |
| RRIRVRPPRLPRPRPRPLTQPRP | Escherichia coli TOP10 | 0.149 |
| RRIRSRPPRLPRPRPRPCAIPRP | Escherichia coli TOP10 | -0.475 |
| RRIRVRPPRLPRPRPRPCSWPRP | Escherichia coli TOP10 | -0.109 |
| RRIRHRPPRLPRPRPRPHISPRP | Escherichia coli TOP10 | -0.226 |
| RRIRLRPPRLPRPRPRPPLTPRP | Escherichia coli TOP10 | 0.288 |
| RRIRGRPPRLPRPRPRPYWTPRP | Escherichia coli TOP10 | -0.0522 |
| RRIRKRPPRLPRPRPRPYDLPRP | Escherichia coli TOP10 | 0.115 |
| RRIRERPPRLPRPRPRPCSQPRP | Escherichia coli TOP10 | -0.0493 |
| RRIRNRPPRLPRPRPRPCYYPRP | Escherichia coli TOP10 | -0.387 |
| RRIRCRPPRLPRPRPRPEFFPRP | Escherichia coli TOP10 | -0.127 |
| RRIRMRPPRLPRPRPRPVDMPRP | Escherichia coli TOP10 | 0.185 |
| RRIRIRPPRLPRPRPRPMLWPRP | Escherichia coli TOP10 | 0.0197 |
| RRIRERPPRLPRPRPRPSFGPRP | Escherichia coli TOP10 | 0.189 |
| RRIRMRPPRLPRPRPRPHRYPRP | Escherichia coli TOP10 | -0.144 |
| RRIRARPPRLPRPRPRPYEMPRP | Escherichia coli TOP10 | -0.0385 |
| RRIRKRPPRLPRPRPRPHCAPRP | Escherichia coli TOP10 | -0.00229 |
| RRIRERPPRLPRPRPRPRNDPRP | Escherichia coli TOP10 | -0.478 |
| RRIRGRPPRLPRPRPRPYFYPRP | Escherichia coli TOP10 | -0.03 |
| RRIRIRPPRLPRPRPRPRILPRP | Escherichia coli TOP10 | -0.188 |
| RRIRFRPPRLPRPRPRPTDDPRP | Escherichia coli TOP10 | -0.019 |
| RRIRNRPPRLPRPRPRPCNKPRP | Escherichia coli TOP10 | -0.334 |
| RRIRDRPPRLPRPRPRPTGRPRP | Escherichia coli TOP10 | 0.134 |
| RRIRCRPPRLPRPRPRPIYQPRP | Escherichia coli TOP10 | -0.306 |
| RRIRLRPPRLPRPRPRPQPIPRP | Escherichia coli TOP10 | 0.0892 |
| RRIRIRPPRLPRPRPRPEVKPRP | Escherichia coli TOP10 | 0.135 |
| RRIRARPPRLPRPRPRPGSSPRP | Escherichia coli TOP10 | -0.112 |
| RRIRDRPPRLPRPRPRPPVDPRP | Escherichia coli TOP10 | 0.361 |
| RRIRSRPPRLPRPRPRPFLFPRP | Escherichia coli TOP10 | -0.329 |
| RRIRRRPPRLPRPRPRPSQDPRP | Escherichia coli TOP10 | 0.112 |
| RRIRCRPPRLPRPRPRPIENPRP | Escherichia coli TOP10 | -0.209 |
| RRIRKRPPRLPRPRPRPDWSPRP | Escherichia coli TOP10 | 0.0357 |
| RRIRNRPPRLPRPRPRPNFSPRP | Escherichia coli TOP10 | -0.0166 |
| RRIRERPPRLPRPRPRPTDRPRP | Escherichia coli TOP10 | 0.0616 |
| RRIRERPPRLPRPRPRPSNYPRP | Escherichia coli TOP10 | -1.12 |
| RRIRARPPRLPRPRPRPVEQPRP | Escherichia coli TOP10 | 0.446 |
| RRIRLRPPRLPRPRPRPENYPRP | Escherichia coli TOP10 | -0.041 |
| RRIRHRPPRLPRPRPRPVGGPRP | Escherichia coli TOP10 | 0.417 |
| RRIRPRPPRLPRPRPRPAWPPRP | Escherichia coli TOP10 | 0.6 |
| RRIRVRPPRLPRPRPRPYHKPRP | Escherichia coli TOP10 | -0.0829 |
| RRIRIRPPRLPRPRPRPFSPPRP | Escherichia coli TOP10 | -0.267 |
| RRIRERPPRLPRPRPRPFFPPRP | Escherichia coli TOP10 | -0.241 |
| RRIRSRPPRLPRPRPRPYRVPRP | Escherichia coli TOP10 | -0.0218 |
| RRIRTRPPRLPRPRPRPWKIPRP | Escherichia coli TOP10 | -0.0703 |
| RRIRPRPPRLPRPRPRPLKYPRP | Escherichia coli TOP10 | -0.424 |
| RRIRPRPPRLPRPRPRPILTPRP | Escherichia coli TOP10 | -0.211 |
| RRIRQRPPRLPRPRPRPTFFPRP | Escherichia coli TOP10 | -0.0813 |
| RRIRHRPPRLPRPRPRPITYPRP | Escherichia coli TOP10 | -0.184 |
| RRIRHRPPRLPRPRPRPEKLPRP | Escherichia coli TOP10 | 0.0208 |
| RRIRSRPPRLPRPRPRPFIRPRP | Escherichia coli TOP10 | -0.412 |

###

system: Escherichia coli TOP10; assay: shrunken log2 fold change of peptide-encoding DNA abundance (4.5 h post-induction vs induction); higher = less antimicrobial activity (less host growth inhibition); conditions: time post-induction: 4.5 h; library: site-saturation at positions 5, 18, 19, 20;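 also: peptides expressed intracellularly from a pBAD plasmid library in pooled LB shake-flask culture, induced with 0.3% L-arabinose, DNA abundance read by NGS, three biological replicates, DESeq2 with apeglm shrinkage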
I would appreciate it if you labelled entries yes (1) when shrunken log2 fold change is -0.01 or higher, otherwise no (0).

| polymer.sequence | label |
| --- | --- |
| RRIRCRPPRLPRPRPRPQGRPRP | yes (1) |
| RRIRQRPPRLPRPRPRPCVNPRP | yes (1) |
| RRIRDRPPRLPRPRPRPFDYPRP | no (0) |
| RRIRQRPPRLPRPRPRPRSPPRP | yes (1) |
| RRIRLRPPRLPRPRPRPEFQPRP | no (0) |
| RRIRTRPPRLPRPRPRPDPYPRP | yes (1) |
| RRIRVRPPRLPRPRPRPSQGPRP | no (0) |
| RRIRNRPPRLPRPRPRPLWGPRP | no (0) |
| RRIRERPPRLPRPRPRPSEIPRP | no (0) |
| RRIRQRPPRLPRPRPRPDPRPRP | yes (1) |
| RRIRMRPPRLPRPRPRPIYIPRP | no (0) |
| RRIRWRPPRLPRPRPRPETIPRP | yes (1) |
| RRIRIRPPRLPRPRPRPILLPRP | no (0) |
| RRIRYRPPRLPRPRPRPRQEPRP | no (0) |
| RRIRARPPRLPRPRPRPSDMPRP | yes (1) |
| RRIRIRPPRLPRPRPRPHIFPRP | no (0) |
| RRIRQRPPRLPRPRPRPYDHPRP | no (0) |
| RRIRYRPPRLPRPRPRPNDKPRP | no (0) |
| RRIRCRPPRLPRPRPRPLWKPRP | yes (1) |
| RRIRVRPPRLPRPRPRPTGEPRP | yes (1) |
| RRIRHRPPRLPRPRPRPNNVPRP | no (0) |
| RRIRARPPRLPRPRPRPADVPRP | yes (1) |
| RRIRARPPRLPRPRPRPSITPRP | yes (1) |
| RRIRTRPPRLPRPRPRPHKRPRP | no (0) |
| RRIRARPPRLPRPRPRPGPRPRP | yes (1) |
| RRIRGRPPRLPRPRPRPKEHPRP | yes (1) |
| RRIRCRPPRLPRPRPRPILEPRP | no (0) |
| RRIRQRPPRLPRPRPRPPNCPRP | yes (1) |
| RRIRMRPPRLPRPRPRPMCLPRP | yes (1) |
| RRIRQRPPRLPRPRPRPQGAPRP | no (0) |
| RRIRPRPPRLPRPRPRPMYHPRP | no (0) |
